Values from patent US20250304576A1

- target.under.test: Recombinant IKKβ (Homo sapiens)
- Construct: purchased Millipore, Dundee, UK
- Sequence (O14920 1-756): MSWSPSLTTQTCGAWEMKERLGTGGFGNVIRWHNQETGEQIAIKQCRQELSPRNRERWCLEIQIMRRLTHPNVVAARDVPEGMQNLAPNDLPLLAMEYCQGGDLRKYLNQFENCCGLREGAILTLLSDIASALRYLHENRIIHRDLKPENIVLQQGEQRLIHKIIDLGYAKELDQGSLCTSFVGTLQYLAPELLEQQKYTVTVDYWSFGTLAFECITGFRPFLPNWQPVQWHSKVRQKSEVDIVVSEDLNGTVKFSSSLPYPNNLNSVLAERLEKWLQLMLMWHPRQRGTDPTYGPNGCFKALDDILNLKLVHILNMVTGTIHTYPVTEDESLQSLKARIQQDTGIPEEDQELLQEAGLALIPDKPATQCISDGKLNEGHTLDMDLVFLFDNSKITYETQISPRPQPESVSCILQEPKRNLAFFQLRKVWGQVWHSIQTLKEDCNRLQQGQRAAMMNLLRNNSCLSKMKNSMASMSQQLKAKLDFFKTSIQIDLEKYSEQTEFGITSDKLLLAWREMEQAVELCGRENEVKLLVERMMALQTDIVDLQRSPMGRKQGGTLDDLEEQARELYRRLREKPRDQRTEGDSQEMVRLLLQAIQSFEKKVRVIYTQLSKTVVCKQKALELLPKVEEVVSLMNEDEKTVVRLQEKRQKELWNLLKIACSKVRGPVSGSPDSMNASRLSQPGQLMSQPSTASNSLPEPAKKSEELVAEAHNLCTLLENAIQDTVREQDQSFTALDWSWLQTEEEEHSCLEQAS
- protocol.notes: DELFIA IKKβ kinase assay (apparent Ki, Cheng-Prusoff)
- Format: biochemical
- conditions.used: DELFIA assay (first line of an example)
As shown below, each of these compounds has a reported log10 of Ki value.
Lab note - Ki converted to log10 from values in nM.

> print(dat)
                                   molecule                target.under.test  assay.value
1  CC(C)(C)Cc1cc2c(-c3ccc4[nH]nc(N)c4c3)ccnc2[nH]1  Recombinant IKKβ (Homo sapiens)         2.92
2  CC(C)(C)C#Cc1cc(-c2ccnc(NC#N)c2)cc2c(N)n[nH]c12  Recombinant IKKβ (Homo sapiens)         3.94
3  COC(=O)c1cc2c(-c3ccc4[nH]nc(N)c4c3)ccnc2[nH]1  Recombinant IKKβ (Homo sapiens)         2.62
4  CC(C)CCNCc1cc2c(-c3ccc4[nH]nc(N)c4c3)ccnc2[nH]1  Recombinant IKKβ (Homo sapiens)         3.17
5  Cc1noc(C)c1Nc1cc(-c2cc(C#CC(C)(C)C)c3[nH]nc(N)c3c2)ccn1  Recombinant IKKβ (Homo sapiens)         3.61

Consider the additional compound presented here.
Incoming: Could you share which log10 of Ki value was measured for "Cn1ccc(Nc2cc(-c3cc(C#CC(C)(C)C)c4[nH]nc(N)c4c3)ccn2)n1" ?
Outgoing: 2.17
